Values were extracted from PubChem BioAssay AID463173.

system: Wild type; test: S. aureus survival, RN4220 and DeltatarO strains – OD600, teichoic acid synthesis inhibitors, primary screen (AID 463173); details: S. aureus RN4220 wild type/DeltatarO growth, OD600, 18 h, hits give low values, screened at 18.75 µg/mL (by protocol)
The whole screen tested about 52,000 compounds, of which about 1,700 (3.3%) were called active. The list comes from a sample in which actives are over-represented; it also holds close analogues and randomly drawn compounds.
Observation type: survival (%)
Dear colleague, please return just the value in %, with no unit written.

For orientation, consider the following solved cases.
# Structure notation, Unit info, survival
rows = [
    ("Cc1cccc(-c2noc(CSc3nc(-c4ccc(F)cc4)cc(=O)[nH]3)n2)c1", "%", 82),
    ("CNC(=O)c1ccc2c(c1)N=C(C)c1cc(C)ccc1S2", "%", 80),
]

From here, focus on the item given below.
Can you share its survival? I mean this compound: `O=C(NCCCN1CCN(c2ccccc2F)CC1)c1sc2ncccc2c1-n1cccc1` 81

###

system: Wild type; test: S. aureus survival, RN4220 and DeltatarO strains – OD600, teichoic acid synthesis inhibitors, primary screen (AID 463173); settings: S. aureus RN4220 wild type/DeltatarO growth, OD600, 18 h, screened at 18.75 µg/mL (by protocol)
Among all 52,000 compounds or so, about 1,700 (3.3%) were called active. No stated cut-off is given here; in the data, active means survival mostly below about 52% (no sharp cut-off); inactive means mostly above about 56%. The entries come from a sample that favours actives as a whole.
# valid calls are active, inactive; nothing else

# Compound, Target under test, Label value
data = [
    ("O=C(CCC(=O)N1CC2CCCN2c2ccccc21)NCc1cccc(Cl)c1 (stereo not given)", "Wild type", "active"),
    ("COc1cc(NC(=O)N2CCN(c3cc(-c4noc(C)n4)ccc3C)CC2)cc(OC)c1OC", "Wild type", "active"),
    ("O=C(Nc1ccc2nc(SCC(=O)N3CCOCC3)sc2c1)c1ccc(F)cc1", "Wild type", "inactive"),
]

For `Cc1ccc(NC(=O)N2CCN(c3cc(-c4noc(C)n4)ccc3C)CC2)c(C)c1` , which call appears in the assay record? inactive

For O=C(CCC(=O)N1CC2CCCN2c2ccccc21)NCc1ccccc1 (stereo not given) , which call appears in the assay record? inactive

For CC1=C(C(=O)Nc2ccc(C)cc2C)C(c2cccs2)n2nc(SCc3ccccc3Cl)nc2N1 (stereo not given) , which call appears in the assay record? inactive

For `Cc1cc(C)cc(NC(=O)N2CCN(c3cc(-c4noc(C)n4)ccc3C)CC2)c1` , which call appears in the assay record? inactive

For `Cc1ccc(Cl)cc1N1CCN(C(=O)c2cc(S(=O)(=O)N3CCCC3)c[nH]2)CC1` , which call appears in the assay record? inactive

For `COc1ccc(NC(=O)N2CCN(c3cc(-c4noc(C)n4)ccc3C)CC2)c(OC)c1` , which call appears in the assay record? inactive

For `COc1ccc(-c2cc(C(=O)Oc3cccc(C)c3C)c3ccccc3n2)cc1` , which call appears in the assay record? active

###

system: Wild type; assay: S. aureus survival, RN4220 and DeltatarO strains – OD600, teichoic acid synthesis inhibitors, primary screen (AID 463173); conditions: S. aureus RN4220 wild type/DeltatarO growth, OD600, 18 h, hits give low values, screened at 18.75 µg/mL (by protocol)
In all, about 52,000 compounds went through this assay and about 1,700 (3.3%) were called active. Only a selection was taken, and actives are over-represented in it overall.
Observation type: survival (%)
Dear colleague, please return just the value in %, with no unit written.

For orientation, consider the following solved cases.
# Compound, Target under test, Unit info, survival
data = [
    ("COc1ccc(NC(=O)C2=C(C)Nc3nc(SCc4ccc(Cl)cc4)nn3C2c2cccc(OC)c2OC)cc1 (stereo not given)", "Wild type", "%", 60),
    ("Cc1oc2ccc(O)c(CN3CCN(C)CC3)c2c1C(=O)Nc1cccc(C(F)(F)F)c1", "Wild type", "%", 92),
    ("Cc1cccc(NC(=O)c2c(NC(=O)c3ccco3)sc3c2CCC(C)C3)c1 (stereo not given)", "Wild type", "%", 73),
    ("Cc1cccc(C(=O)Nc2sc3c(c2C(=O)N2CCCCC2)CCC(C)C3)c1 (stereo not given)", "Wild type", "%", -1),
    ("CC1CCc2c(sc(NC(=O)c3ccccc3)c2C(=O)Nc2ccccc2)C1 (stereo not given)", "Wild type", "%", 64),
]

Return survival measured with Wild type given this compound: COc1ccc(C(CC(=O)Nc2cc(Cl)c(OC)cc2OC)N2Cc3ccccc3C2=O)cc1 (stereo not given) -3

Return survival measured with Wild type given this compound: `Cc1ccc(C(C)C)c(OCC(=O)Nc2ccc(-c3nc4ncccc4o3)cc2C)c1` 69

###

system: Wild type; assay: S. aureus survival, RN4220 and DeltatarO strains – OD600, teichoic acid synthesis inhibitors, primary screen (AID 463173); conditions: S. aureus RN4220 wild type/DeltatarO growth, OD600, 18 h, hits give low values, screened at 18.75 µg/mL (by protocol)
Among all 52,000 compounds or so, about 1,700 (3.3%) were called active. Only a selection was taken, and actives are over-represented in it overall.
compounds and their reported survival
Dear colleague, please return just the value in %, with no unit written.

For orientation, consider the following solved cases.
# Compound, Unit info, Observed value
records = [
    ("Cc1cc(-c2nc3ncccc3o2)ccc1NC(=O)COc1ccc(C(C)(C)C)cc1", "%", 26),
    ("CCN(Cc1ccccc1)c1ncnc2c1cnn2-c1ccc(F)cc1", "%", 55),
    ("O=C(Nc1ccc(F)cc1F)c1cc(CN2CCOCC2)on1", "%", 69),
    ("CCCCN(CCCC)c1ncnc2c1cnn2-c1cccc(C)c1", "%", 91),
    ("CCN(Cc1ccccc1)C(c1cccnc1)c1nnnn1Cc1ccccc1 (configuration not stated)", "%", 106),
    ("CC(C)c1ccc(OCC(=O)Nc2cc(-c3nc4ncccc4o3)ccc2Cl)cc1", "%", 128),
]

Can you share its survival? I mean this compound: `Cc1ccc(-n2ncc3c(N(CCO)Cc4ccccc4)ncnc32)cc1` 0

###

system: Wild type; test: S. aureus survival, RN4220 and DeltatarO strains – OD600, teichoic acid synthesis inhibitors, primary screen (AID 463173); conditions: S. aureus RN4220 wild type/DeltatarO growth, OD600, 18 h, hits give low values, screened at 18.75 µg/mL (by protocol)
Screen size: about 52,000 compounds; about 1,700 (3.3%) were called active. The list comes from a sample in which actives are over-represented; it also holds close analogues and randomly drawn compounds.
molecules and their reported survival
Dear colleague, please return just the value in %, with no unit written.

# Molecule, Target under test, survival [%]
records = [
    ("CCCN(c1ccc(C(C)C)cc1)S(=O)(=O)c1ccc2c(c1)oc(=O)n2CC(=O)OCC", "Wild type", 73),
    ("Cc1ccccc1CSc1nc(-c2cccc(F)c2)nc2c1Cc1c(CO)cnc(C)c1O2", "Wild type", 85),
    ("CCn1c(=O)cc(OCC(=O)N(C)c2cc(Cl)ccc2C)c2ccccc21", "Wild type", 62),
    ("COc1ccc(-c2nn(C)c3sc(C(=O)NCCN(C)C)cc23)cc1OC", "Wild type", 82),
    ("Cc1cn2c(=O)c(S(=O)(=O)NCCc3ccc(Cl)cc3)c(C)nc2s1", "Wild type", 88),
]

From here, focus on the item given below.
Can you share its survival? I mean this molecule: CCC(C)NS(=O)(=O)c1ccc(N2CCCCS2(=O)=O)cc1 (stereo unspecified) 135

###

tested on: Wild type; experiment: S. aureus survival, RN4220 and DeltatarO strains – OD600, teichoic acid synthesis inhibitors, primary screen (AID 463173); details: S. aureus RN4220 wild type/DeltatarO growth, OD600, 18 h, screened at 18.75 µg/mL (by protocol)
About 1,700 (3.3%) of roughly 52,000 compounds were called active. No stated cut-off is given here; in the data, active means survival mostly below about 52% (no sharp cut-off); inactive means mostly above about 56%. The entries come from a sample that favours actives as a whole.
# valid calls are active, inactive; nothing else

For `CCOC(=O)c1cnc2c(Cl)c(Cl)ccc2c1Nc1ccc(N(C)C)cc1` , which call appears in the assay record? inactive

For `Cc1c(Cl)cccc1-c1ccc(C(=O)Nc2ccc3oc(-c4cccnc4)nc3c2)o1` , which call appears in the assay record? inactive

For `CS(=O)(=O)NCCc1csc2nc(-c3ccccc3)nn12` , which call appears in the assay record? active

For `Cc1cccc(CN2C(=O)c3ccccc3Sc3ccc(C(=O)NCc4ccco4)cc32)c1` , which call appears in the assay record? inactive

For `Cc1ccc(CN2C(=O)c3ccccc3Sc3ccc(C(=O)NCc4ccco4)cc32)cc1` , which call appears in the assay record? inactive

For `CCCc1cc(=O)[nH]c(Nc2ccc(O)cc2C)n1` , which call appears in the assay record? inactive

For `COc1ccc(-c2nc3scc(CCNS(=O)(=O)c4ccccc4F)n3n2)cc1` , which call appears in the assay record? inactive

For `O=C(Nc1ccc(NC(=O)c2cc3ccccc3o2)cc1)c1ccccc1` , which call appears in the assay record? inactive

For `COc1ccc(-n2ncc3c(NC(C)(C)CO)ncnc32)cc1` , which call appears in the assay record? inactive

For `CCN(C(=O)CSc1nc(-c2ccccc2)no1)c1cccc(C)c1` , which call appears in the assay record? active

For `COc1ccc(-c2noc(CCC(=O)Nc3ccc(C(F)(F)F)cc3)n2)cc1` , which call appears in the assay record? inactive

For `COc1ccc(C(=O)Oc2ccc(C(c3c(C)[nH][nH]c3=O)c3c(C)[nH][nH]c3=O)cc2OC)cc1` , which call appears in the assay record? inactive

For `Cc1ccccc1CN1c2ccccc2S(=O)(=O)c2ccccc21` , which call appears in the assay record? inactive

For `CCOC(=O)c1cnc2c(C)cccc2c1Nc1ccc(OC(C)C)cc1` , which call appears in the assay record? active
